test-target: CDK4 (Homo sapiens)
Construct: endogenous in cells
Sequence (P11802 whole entry): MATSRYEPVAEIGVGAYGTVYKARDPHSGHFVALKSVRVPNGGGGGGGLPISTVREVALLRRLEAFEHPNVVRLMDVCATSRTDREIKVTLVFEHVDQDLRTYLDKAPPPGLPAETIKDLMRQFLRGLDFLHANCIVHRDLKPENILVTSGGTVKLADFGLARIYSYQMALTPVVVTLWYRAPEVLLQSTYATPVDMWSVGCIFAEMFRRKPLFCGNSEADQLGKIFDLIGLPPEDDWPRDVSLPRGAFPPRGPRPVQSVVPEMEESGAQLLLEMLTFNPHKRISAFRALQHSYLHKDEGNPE
procedure-summary: CDK4 degradation (DC50, Dmax)
Type: cell-based
quantity-kind: DC50

compound: Cc1nc2c(F)cc(-c3nc(Nc4ccc(CC5CCN(C6CCN(c7ccc(C(=O)NC8CCC(=O)NC8=O)cc7)CC6)CC5)cn4)ncc3F)cc2n1C(C)C (stereo not drawn)
quantity-kind: DC50
recorded-value: 50 to 200 nM
//
compound: CC(=O)c1c(C)c2cnc(Nc3ccc(N4CCN(CCCNc5cccc6c5C(=O)N(C5CCC(=O)NC5=O)C6=O)CC4)cn3)nc2n(C2CCCC2)c1=O (stereo not drawn)
quantity-kind: DC50
recorded-value: 50 to 200 nM
//
compound: CC(=O)c1c(C)c2cnc(Nc3ccc(N4CCN(C5CCN(c6ccc7c(c6)C(=O)N(C6CCC(=O)NC6=O)C7=O)CC5)CC4)cn3)nc2n(C2CCCC2)c1=O (stereo not drawn)
quantity-kind: DC50
recorded-value: 50 to 200 nM
//
compound: Cc1nc2c(F)cc(-c3nc(Nc4ccc(CN5CCN(CC6CN(c7ccc(C(=O)NC8CCC(=O)NC8=O)cc7)C6)CC5)cn4)ncc3F)cc2n1C(C)C (stereo not drawn)
quantity-kind: DC50
recorded-value: < 50 nM
//
compound: CC(=O)c1c(C)c2cnc(Nc3ccc(N4CCN(CC5CCN(C(=O)N6CCN(c7ccc8c(c7)CN(C7CCC(=O)NC7=O)C8=O)CC6)CC5)CC4)cn3)nc2n(C2CCCC2)c1=O (stereo not drawn)
quantity-kind: DC50
recorded-value: 50 to 200 nM
//
compound: CC(=O)c1c(C)c2cnc(Nc3ccc(N4CCN(CC5CN(c6ccc(C(=O)NC7CCC(=O)NC7=O)cc6)C5)CC4)cn3)nc2n(C2CCCC2)c1=O (stereo not drawn)
quantity-kind: DC50
recorded-value: 50 to 200 nM
//
compound: CC(=O)c1c(C)c2cnc(Nc3ccc(N4CCN(C(=O)N5CCC(CCN6CCN(c7ccc8c(c7)CN(C7CCC(=O)NC7=O)C8=O)CC6)CC5)CC4)cn3)nc2n(C2CCCC2)c1=O (stereo not drawn)
quantity-kind: DC50
recorded-value: 50 to 200 nM
//
compound: CC(=O)c1c(C)c2cnc(Nc3ccc(C4CCN(CC5CN(c6ccc(NC7CCC(=O)NC7=O)cc6)C5)CC4)cn3)nc2n(C2CCCC2)c1=O (stereo not drawn)
quantity-kind: DC50
recorded-value: < 50 nM
//
compound: Cc1nc2c(F)cc(-c3nc(Nc4ccc(CN5CCN(CC6CCN(c7ccc(NC8CCC(=O)NC8=O)cc7)CC6)CC5)cn4)ncc3F)cc2n1C(C)C (stereo not drawn)
quantity-kind: DC50
recorded-value: < 50 nM
//
compound: CC(=O)c1c(C)c2cnc(Nc3ccc(N4CCN(CC5CN(c6ccc7c(c6)C(=O)N(C6CCC(=O)NC6=O)C7=O)C5)CC4)cn3)nc2n(C2CCCC2)c1=O (stereo not drawn)
quantity-kind: DC50
recorded-value: < 50 nM
//
compound: Cc1nc2c(F)cc(-c3nc(Nc4ccc(CN5CCN(CCNc6cccc7c6CN(C6CCC(=O)NC6=O)C7=O)CC5)cn4)ncc3F)cc2n1C(C)C (stereo not drawn)
quantity-kind: DC50
recorded-value: 50 to 200 nM
//
compound: CC(=O)c1c(C)c2cnc(Nc3ccc(N4CCN(CCCCN(C)c5ccc6c(c5)CN(C5CCC(=O)NC5=O)C6=O)CC4)cn3)nc2n(C2CCCC2)c1=O (stereo not drawn)
quantity-kind: DC50
recorded-value: 50 to 200 nM
//
compound: CC(=O)c1c(C)c2cnc(Nc3ccc(N4CCN(C(=O)N5CCN(CC6CCN(c7ccc8c(c7)C(=O)N(C7CCC(=O)NC7=O)C8=O)CC6)CC5)CC4)cn3)nc2n(C2CCCC2)c1=O (stereo not drawn)
quantity-kind: DC50
recorded-value: > 200 nM
//
compound: CC(=O)c1c(C)c2cnc(Nc3ccc(N4CCN(C(=O)N5CCN(CCC6CCN(c7ccc8c(c7)CN(C7CCC(=O)NC7=O)C8=O)CC6)CC5)CC4)cn3)nc2n(C2CCCC2)c1=O (stereo not drawn)
quantity-kind: DC50
recorded-value: > 200 nM
//
compound: CC(=O)c1c(C)c2cnc(Nc3ccc(N4CCN(CC5CCN(c6ccc7c(c6)C(=O)N(C6CCC(=O)NC6=O)C7=O)CC5)CC4)cn3)nc2n(C2CCCC2)c1=O (stereo not drawn)
quantity-kind: DC50
recorded-value: < 50 nM
